Tested on: C2C12 + WNT3A conditioned medium, alkaline phosphatase
PROTOCOL_NOTES: alkaline phosphatase induction in C2C12 cells, dose response, cell-based, WNT3A-conditioned medium (AID 1117327)
Calls of active or inactive are those of the source. The rule behind the calls is not given here.
PROPERTY_LABEL: IC50

Look up IC50 for this molecule: CN(C)C(=S)SSC(=S)N(C)C
> 20000 nM (inactive)

One more molecule: NC(=NCCCCCCN=C(N)/N=C(\N)Nc1ccc(Cl)cc1)/N=C(\N)Nc1ccc(Cl)cc1
> 20000 nM (inactive)

One more molecule: CC(C)(C)C(=O)OCOP(=O)(COCCn1cnc2c(N)ncnc21)OCOC(=O)C(C)(C)C
387 nM

One more molecule: CCCCCCCCCCCCNCCNCCNCC(=O)O
> 20000 nM (inactive)

One more molecule: C[n+]1c2cc(N)ccc2cc2ccc(N)cc21 (tested in a mixture with another compound)
1600 nM

* * *

Tested on: C2C12 + WNT3A conditioned medium, alkaline phosphatase
PROTOCOL_NOTES: alkaline phosphatase induction in C2C12 cells, dose response, cell-based, WNT3A-conditioned medium (AID 1117327)
Active and inactive are the calls of the source. No rule for the calls is given here.
Hi! Could you answer with just one of these? active, inactive

Just curious, what result did CCc1nc(N)nc(N)c1-c1ccc(Cl)cc1 get here?
active

One more compound: COC(=O)Nc1nc2ccc(C(=O)C3CC3)cc2[nH]1
active

One more compound: O=C(CCl)c1ccc(Cl)cc1Cl
inactive

One more compound: O=C1C(I)=CC(=C(c2cc(I)c(O)c(I)c2)c2ccccc2C(=O)O)C=C1I
inactive

One more compound: Cc1cc(C2CCCCC2)n(O)c(=O)c1
active

One more compound: Clc1cc(Cl)c(OCC#CI)cc1Cl
inactive

One more compound: CN1C[C@H](CNC(=O)OCc2ccccc2)C[C@@H]2c3cccc4c3c(cn4C)C[C@H]21
inactive

One more compound: COC(=O)Nc1nc2ccc(S(=O)c3ccccc3)cc2[nH]1 (centres undefined)
active

One more compound: CCCCCCCCCCCCCC[N+](C)(C)Cc1ccccc1
inactive

One more compound: CCCSc1ccc2nc(NC(=O)OC)[nH]c2c1
inactive

One more compound: COc1cc(C=C2CCC/C(=C\c3ccc(O)c(OC)c3)C2=O)ccc1O
inactive

One more compound: O=[N+]([O-])c1ccc(O)c2ncccc12
inactive

One more compound: COc1cccc2c1C(=O)c1c(O)c3c(c(O)c1C2=O)C[C@@](O)(C(=O)CO)C[C@@H]3O[C@H]1C[C@H](N)[C@H](O[C@@H]2CCCCO2)[C@H](C)O1
active

One more compound: CC[C@@]1(O)C(=O)OCc2c1cc1n(c2=O)Cc2cc3c(CN(C)C)c(O)ccc3nc2-1
active

One more compound: CCN(CC)CCNc1ccc(CO)c2sc3ccccc3c(=O)c12
active

One more compound: CCCCCCCCCCCC(=O)[O][Sn]([CH2]CCC)([CH2]CCC)[O]C(=O)CCCCCCCCCCC
inactive

One more compound: COC(=O)Nc1nc2ccc(C(=O)c3cccs3)cc2[nH]1
active

One more compound: O=C1OC2(c3cc(Br)c(O)cc3Oc3c2cc(Br)c(O)[c]3[Hg])c2ccccc21 (centres undefined)
inactive

One more compound: COc1cccc2c1C(=O)c1c(O)c3c(c(O)c1C2=O)C[C@@](O)(C(C)=O)C[C@@H]3O[C@H]1C[C@H](N)[C@H](O)[C@H](C)O1
active
